Molecular target: LIM domain kinase 2 (Homo sapiens); note: in the data inactive means no Kd found up to 30 µM
Sequence (P53671 whole entry, the tested form may be a part): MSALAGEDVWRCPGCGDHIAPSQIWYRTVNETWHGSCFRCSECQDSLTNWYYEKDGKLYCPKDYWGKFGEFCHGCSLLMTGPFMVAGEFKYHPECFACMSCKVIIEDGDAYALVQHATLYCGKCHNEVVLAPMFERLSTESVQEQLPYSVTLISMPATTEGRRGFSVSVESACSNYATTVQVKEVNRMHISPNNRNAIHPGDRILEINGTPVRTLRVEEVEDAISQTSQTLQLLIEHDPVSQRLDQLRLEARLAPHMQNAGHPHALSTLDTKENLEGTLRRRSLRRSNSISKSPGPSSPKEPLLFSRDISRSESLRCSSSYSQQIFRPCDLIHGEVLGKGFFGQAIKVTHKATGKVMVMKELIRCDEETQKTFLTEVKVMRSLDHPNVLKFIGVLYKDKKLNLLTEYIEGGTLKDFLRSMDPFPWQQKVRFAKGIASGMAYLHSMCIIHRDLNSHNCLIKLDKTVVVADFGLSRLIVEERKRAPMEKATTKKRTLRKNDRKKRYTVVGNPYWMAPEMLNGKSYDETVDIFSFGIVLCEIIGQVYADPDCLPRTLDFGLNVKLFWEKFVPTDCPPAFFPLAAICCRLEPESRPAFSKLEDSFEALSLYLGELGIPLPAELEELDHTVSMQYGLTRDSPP
Active and inactive are the calls of the source.
Field 'call' accepts active, inactive

Consider the worked cases shown below.
CCn1c(C(=O)N(C2CC2)C2CC2)cc2c3c(ncn3C)c(Nc3cc(C)n(C)n3)nc21: inactive
CC(=O)NCC(=O)N1[C@@H]2CC[C@H]1c1ccc(Nc3ncc(C(F)(F)F)c(NC4CCC4)n3)cc12: inactive

Task: What outcome does the record of this test show for O=c1[nH]ccc2cc(OC3CCNCC3)ccc12 [SAR-407899 FREE BASE] ?
Result: inactive

Task: Please state the recorded outcome for this compound: NC1(c2ccc(-c3nc4ccn5c(=O)[nH]nc5c4cc3-c3ccccc3)cc2)CCC1
Result: inactive

Task: What did this assay record as the result for Cc1cc(Nc2ncnc3ccc(NC4=NC(C)(C)CO4)cc23)ccc1Oc1ccn2ncnc2c1 ?
Result: inactive

Task: Record lookup: outcome of this test for O=C(Nc1c[nH]nc1-c1nc2cc(CN3CCOCC3)ccc2[nH]1)NC1CC1 ?
Result: active

====

Target: Phosphatidylinositol 5-phosphate 4-kinase type-2 gamma (Homo sapiens); note: in the data inactive means no Kd found up to 30 µM
Sequence (Q8TBX8 whole entry): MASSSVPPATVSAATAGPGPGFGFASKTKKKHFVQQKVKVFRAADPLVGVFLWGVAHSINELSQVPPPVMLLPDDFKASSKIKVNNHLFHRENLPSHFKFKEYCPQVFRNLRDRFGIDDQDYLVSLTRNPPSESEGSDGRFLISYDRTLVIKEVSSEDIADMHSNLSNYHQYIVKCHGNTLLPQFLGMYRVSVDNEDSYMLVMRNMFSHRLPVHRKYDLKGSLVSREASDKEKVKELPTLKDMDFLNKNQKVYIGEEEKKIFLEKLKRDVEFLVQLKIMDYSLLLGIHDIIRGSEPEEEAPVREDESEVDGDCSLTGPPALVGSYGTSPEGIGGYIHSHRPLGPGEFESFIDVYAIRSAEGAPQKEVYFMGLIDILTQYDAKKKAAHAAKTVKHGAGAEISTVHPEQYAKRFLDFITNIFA
Active and inactive are the calls of the source.
Return exactly one item of active, inactive

Cn1cc(-c2cnc3ccc4ccc(CS(=O)(=O)NCc5ccccn5)cc4c(=O)c3c2)cn1 [MK-8033]: inactive
COc1cc([C@@H]2c3cc4c(cc3[C@H](O)[C@H]3COC(=O)[C@@H]23)OCO4)cc(OC)c1OC [AXL-1717]: inactive
Cn1cc(-c2cnn3c(N)c(Br)c([C@@H]4CCCNC4)nc23)cn1 [SCH-900776]: inactive
CO[C@H]1C[C@@H]2CC[C@@H](C)[C@@](O)(O2)C(=O)C(=O)N2CCCC[C@H]2C(=O)O[C@H]([C@H](C)C[C@@H]2CC[C@@H](O)[C@H](OC)C2)CC(=O)[C@H](C)/C=C(\C)[C@@H](O)[C@@H](OC)C(=O)[C@H](C)C[C@H](C)/C=C/C=C/C=C/1C [SIROLIMUS]: inactive

Task: Which result was noted for this compound in the test: CN1CCN(CCOc2cc(OC3CCOCC3)c3c(Nc4c(Cl)ccc5c4OCO5)ncnc3c2)CC1 [SARACATINIB]
Result: inactive

====

Biological target: STE20-like serine/threonine-protein kinase (Homo sapiens); note: in the data inactive means no Kd found up to 30 µM
Sequence (Q9H2G2 whole entry): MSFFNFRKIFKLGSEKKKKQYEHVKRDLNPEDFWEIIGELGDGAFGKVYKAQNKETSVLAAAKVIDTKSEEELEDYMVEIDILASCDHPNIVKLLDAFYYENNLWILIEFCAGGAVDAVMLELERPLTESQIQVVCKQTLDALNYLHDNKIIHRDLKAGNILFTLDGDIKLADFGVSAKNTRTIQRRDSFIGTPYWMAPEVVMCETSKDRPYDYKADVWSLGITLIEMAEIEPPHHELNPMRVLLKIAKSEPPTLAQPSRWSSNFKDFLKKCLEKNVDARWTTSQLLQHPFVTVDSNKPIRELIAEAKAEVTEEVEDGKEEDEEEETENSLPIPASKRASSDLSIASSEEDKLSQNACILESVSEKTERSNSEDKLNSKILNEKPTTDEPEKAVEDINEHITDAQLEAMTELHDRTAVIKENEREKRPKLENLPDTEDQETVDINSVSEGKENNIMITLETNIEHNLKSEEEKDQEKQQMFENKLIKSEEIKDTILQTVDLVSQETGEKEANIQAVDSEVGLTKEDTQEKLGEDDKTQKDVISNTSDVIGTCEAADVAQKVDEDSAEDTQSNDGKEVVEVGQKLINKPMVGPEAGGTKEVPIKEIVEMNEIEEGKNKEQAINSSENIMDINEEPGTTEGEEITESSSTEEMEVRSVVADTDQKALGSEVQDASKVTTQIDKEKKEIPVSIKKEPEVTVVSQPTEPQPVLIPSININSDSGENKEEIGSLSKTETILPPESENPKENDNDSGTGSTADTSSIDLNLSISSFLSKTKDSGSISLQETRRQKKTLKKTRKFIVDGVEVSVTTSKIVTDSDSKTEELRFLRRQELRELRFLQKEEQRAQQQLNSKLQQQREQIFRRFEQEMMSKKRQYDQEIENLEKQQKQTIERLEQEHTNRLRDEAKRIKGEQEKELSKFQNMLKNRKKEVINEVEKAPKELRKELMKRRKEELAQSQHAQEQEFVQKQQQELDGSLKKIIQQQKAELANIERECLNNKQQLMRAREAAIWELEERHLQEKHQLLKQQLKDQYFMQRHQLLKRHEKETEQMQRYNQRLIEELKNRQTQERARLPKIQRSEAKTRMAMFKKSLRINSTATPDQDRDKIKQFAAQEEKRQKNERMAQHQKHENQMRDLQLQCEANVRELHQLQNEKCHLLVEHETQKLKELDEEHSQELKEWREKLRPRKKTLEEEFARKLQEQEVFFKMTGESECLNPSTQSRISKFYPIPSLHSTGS
Activity calls are given as the source filed them.
Respond only with the outcome that fits, drawn from TRUE = active, FALSE = inactive

As a guide, the following entries are already answered.
Cc1nc(NC(=O)N2CCC[C@H]2C(N)=O)sc1-c1ccnc(C(C)(C)C(F)(F)F)c1: FALSE
Nc1ncnc2c1c(-c1cccc(OCc3ccccc3)c1)cn2[C@H]1C[C@@H](CN2CCC2)C1: FALSE
Cc1csc(-c2nnc(Nc3ccc(Oc4ncccc4-c4ccnc(N)n4)cc3)c3ccccc23)c1: FALSE
CC(=O)c1cnc2ccc(-c3cc(Cl)c(O)c(Cl)c3)nc2c1N[C@H]1CC[C@H](CN(C)C)CC1: TRUE
Cn1cnc2c(F)c(Nc3ccc(Br)cc3F)c(C(=O)NOCCO)cc21: FALSE
COc1ncc(-c2ccc3nccc(-c4ccnnc4)c3c2)cc1NS(=O)(=O)c1ccc(F)cc1F: FALSE
Cc1nc2cc(-c3nn(C(C)C)c4ncnc(N)c34)ccc2o1: FALSE
Cc1cc(C(=O)NOCCO)c(Nc2ccc(I)cc2F)n(C)c1=O: FALSE
CCS(=O)(=O)c1cccc(-c2cc(C(=O)NC3CCN(C)CC3)c(C)c3[nH]c4ncc(C)cc4c23)c1: TRUE
COc1cc([C@@H]2c3cc4c(cc3[C@H](O)[C@H]3COC(=O)[C@@H]23)OCO4)cc(OC)c1OC: FALSE

Now, please, on to the next compound.
Task: Write down the call the test reported for this compound. Item: NC1(c2ccc(-c3nc4ccn5c(=O)[nH]nc5c4cc3-c3ccccc3)cc2)CCC1
Result: FALSE

Reference source for all entries: ChEMBL document CHEMBL3991601
